measurement notes: Stability testing in simulated gastric fluids
run parameters: 10 μM, saline pH approximately 1 plus pepsin, incubation time 60 min
endpoint label: Loss of parent compound in simulated gastric fluid (%)

Below, 2 compounds whose answers are already recorded.
The compound listed as CCOP(=O)(OCC)N(C)CCCN1c2ccccc2CCc2ccccc21 [RIC-02] shows Loss of parent compound in simulated gastric fluid (%) equal to 74.67

GET /value?item= COC(=O)N(C)CCCN1c2ccccc2CCc2ccccc21 [RIC-5a] &field=Loss of parent compound in simulated gastric fluid (%) returns 31.78

(I) CCCOC(=O)N(C)CCCN1c2ccccc2CCc2ccccc21 [RIC-5b]
(II) CC(C)COC(=O)N(C)CCCN1c2ccccc2CCc2ccccc21 [RIC-5c]
Task: Please choose the item with the lower Loss of parent compound in simulated gastric fluid (%) value from this pair: I and II Returns: label corresponding to the selected item.
Result: I
(I: 26.67%, II: 82.77%)

====

measurement notes: Stability testing of prodrugs in human plasma
Assay type: in vitro ADME
run parameters: 10 μM, ca. 37° C., incubation time 60 min
endpoint label: Loss of parent compound in human plasma (%)

The recorded Loss of parent compound in human plasma (%) for entry CC(C)COC(=O)N(C)CCCN1c2ccccc2CCc2ccccc21 [RIC-5c] equals −1.48

For record CCOP(=O)(OCC)N(C)CCCN1c2ccccc2CCc2ccccc21 [RIC-02] the listed Loss of parent compound in human plasma (%) is 9.94

(I) CCCCCCCCOC(=O)N(C)CCCN1c2ccccc2CCc2ccccc21 [RIC-5d]
(II) COC(=O)N(C)CCCN1c2ccccc2CCc2ccccc21 [RIC-5a]
(III) CCCOC(=O)N(C)CCCN1c2ccccc2CCc2ccccc21 [RIC-5b]
Task: Let's sort these by Loss of parent compound in human plasma (%), smallest first. Go ahead? Answer format: the labels, ordered as requested.
Result: I, III, II
(I: −1.44%, III: 6.85%, II: 15.80%)

====

study system: recombinant human CYP3A4 (Homo sapiens)
Construct: purchased BD Gentest (Woburn, Mass.)
Sequence (P08684 whole entry): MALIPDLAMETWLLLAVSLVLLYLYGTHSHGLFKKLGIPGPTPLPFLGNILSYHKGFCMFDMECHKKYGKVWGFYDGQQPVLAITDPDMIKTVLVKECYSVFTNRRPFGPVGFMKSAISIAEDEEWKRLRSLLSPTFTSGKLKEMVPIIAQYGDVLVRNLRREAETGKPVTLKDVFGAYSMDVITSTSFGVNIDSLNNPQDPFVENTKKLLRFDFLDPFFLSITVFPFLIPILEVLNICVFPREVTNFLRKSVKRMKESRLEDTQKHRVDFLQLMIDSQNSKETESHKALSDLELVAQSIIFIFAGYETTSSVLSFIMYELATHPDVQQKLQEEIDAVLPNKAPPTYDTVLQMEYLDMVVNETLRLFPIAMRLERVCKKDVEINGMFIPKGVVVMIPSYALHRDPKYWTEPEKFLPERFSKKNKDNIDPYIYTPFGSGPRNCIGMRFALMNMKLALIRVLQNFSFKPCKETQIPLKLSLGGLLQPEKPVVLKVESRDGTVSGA
measurement notes: Metabolic stability in the presence of CYP3A4 isozyme
Type: in vitro ADME
run parameters: 10 μm compound, incubation time 30 min
Method: The metabolic stability of each compound prepared in Examples 1-5 was assessed in the presence of CYP2D6 and CYP3A4 obtained from BD Gentest (Woburn, Mass.). The metabolic stability of each compound prepared in Examples 1-5 was assessed in duplicate by incubation of 10 μm compound with recombinant human CYP2D6 and 3A4 using similar conditions to those in Example 9. […] Quantification of the disappearance of the prodrug was conducted LC-MS. Appearance of metabolites was also monitored.
endpoint label: Loss of parent compound with CYP3A4 isozyme (%)

# example entries with known answers
The reported value for CCOP(=O)(OCC)N(C)CCCN1c2ccccc2CCc2ccccc21 [RIC-02] in terms of Loss of parent compound with CYP3A4 isozyme (%) is 97.05

Loss of parent compound with CYP3A4 isozyme (%) recorded for this compound, COC(=O)N(C)CCCN1c2ccccc2CCc2ccccc21 [RIC-5a] , is 91.32

// Loss of parent compound with CYP3A4 isozyme (%) lookup, compound = CCCOC(=O)N(C)CCCN1c2ccccc2CCc2ccccc21 [RIC-5b] , result: 92.32

(a) CC(C)COC(=O)N(C)CCCN1c2ccccc2CCc2ccccc21 [RIC-5c]
(b) CCCCCCCCOC(=O)N(C)CCCN1c2ccccc2CCc2ccccc21 [RIC-5d]
Task: Out of a and b , name the one with the higher Loss of parent compound with CYP3A4 isozyme (%). Refer to your chosen entry by its label in the reply.
Result: a

====

study system: CYP2D6 (Homo sapiens)
Sequence (P10635 whole entry): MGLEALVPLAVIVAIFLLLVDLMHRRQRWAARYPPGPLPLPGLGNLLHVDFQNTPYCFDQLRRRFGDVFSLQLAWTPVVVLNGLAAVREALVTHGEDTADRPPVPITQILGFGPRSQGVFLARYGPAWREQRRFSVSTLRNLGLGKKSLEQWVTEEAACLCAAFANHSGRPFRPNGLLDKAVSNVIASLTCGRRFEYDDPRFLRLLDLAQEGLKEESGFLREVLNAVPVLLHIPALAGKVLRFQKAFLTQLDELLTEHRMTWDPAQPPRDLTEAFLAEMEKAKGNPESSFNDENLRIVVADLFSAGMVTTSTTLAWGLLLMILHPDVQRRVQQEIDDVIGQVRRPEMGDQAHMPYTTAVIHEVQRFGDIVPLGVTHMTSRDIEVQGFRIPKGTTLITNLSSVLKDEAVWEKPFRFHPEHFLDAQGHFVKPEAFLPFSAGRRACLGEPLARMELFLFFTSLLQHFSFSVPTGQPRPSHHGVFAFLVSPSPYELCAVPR
measurement notes: Metabolic stability in the presence of CYP2D6 isozyme
Type: in vitro ADME
Design: purchased BD Gentest (Woburn, Mass.)
run parameters: 10 μm compound, incubation time 60 min
endpoint label: Loss of parent compound with CYP2D6 isozyme (%)

Example compounds with recorded Loss of parent compound with CYP2D6 isozyme (%):
Reported CYP2D6 (Homo sapiens) Loss of parent compound with CYP2D6 isozyme (%) for item COC(=O)N(C)CCCN1c2ccccc2CCc2ccccc21 was 83.13

Entry CCOP(=O)(OCC)N(C)CCCN1c2ccccc2CCc2ccccc21 under CYP2D6 (Homo sapiens) had Loss of parent compound with CYP2D6 isozyme (%) of 37.11

(P) CCCOC(=O)N(C)CCCN1c2ccccc2CCc2ccccc21
(Q) CC(C)COC(=O)N(C)CCCN1c2ccccc2CCc2ccccc21
Task: Endpoint returns whichever of P and Q has the numerically higher Loss of parent compound with CYP2D6 isozyme (%). Your answer should be the label attached to the chosen record.
Result: Q

====

measurement notes: Stability testing in simulated intestinal fluids
run parameters: 10 μM, phosphate pH 6, incubation time 60 min
endpoint label: Loss of parent compound in simulated intestinal fluid (%)

(I) CCCOC(=O)N(C)CCCN1c2ccccc2CCc2ccccc21
(II) CCCCCCCCOC(=O)N(C)CCCN1c2ccccc2CCc2ccccc21
(III) COC(=O)N(C)CCCN1c2ccccc2CCc2ccccc21
Task: Sort the 3 compounds by Loss of parent compound in simulated intestinal fluid (%); largest first, smallest last. Rank them, then answer with their labels in that order.
Result: III, I, II

====

measurement notes: Stability testing of prodrugs in human plasma
Format: in vitro ADME
run parameters: 10 μM, ca. 37° C., incubation time 30 min
endpoint label: Loss of parent compound in human plasma (%)

Recorded Loss of parent compound in human plasma (%), per entry:
Loss of parent compound in human plasma (%) reported for this molecule CC(C)COC(=O)N(C)CCCN1c2ccccc2CCc2ccccc21 : 5.11

The molecule identified as COC(=O)N(C)CCCN1c2ccccc2CCc2ccccc21 registered its Loss of parent compound in human plasma (%) at 5.47

(1) CCCOC(=O)N(C)CCCN1c2ccccc2CCc2ccccc21
(2) CCCCCCCCOC(=O)N(C)CCCN1c2ccccc2CCc2ccccc21
Task: For the pair 1 and 2 , which member has the lower Loss of parent compound in human plasma (%) number? Pick one; state its label.
Result: 2

====

study system: recombinant human CYP3A4 (Homo sapiens)
Construct: purchased BD Gentest (Woburn, Mass.)
measurement notes: Metabolic stability in the presence of CYP3A4 isozyme
Format: in vitro ADME
run parameters: 10 μm compound, incubation time 60 min
endpoint label: Loss of parent compound with CYP3A4 isozyme (%)

Lab note: measured Loss of parent compound with CYP3A4 isozyme (%) of CCCOC(=O)N(C)CCCN1c2ccccc2CCc2ccccc21 was 95.20

(P) CCCCCCCCOC(=O)N(C)CCCN1c2ccccc2CCc2ccccc21
(Q) COC(=O)N(C)CCCN1c2ccccc2CCc2ccccc21
Task: Could you check which of P and Q has a smaller value for Loss of parent compound with CYP3A4 isozyme (%)? Mark your answer with the label of the selected entry.
Result: P

====

study system: CYP2D6 (Homo sapiens)
measurement notes: Metabolic stability in the presence of CYP2D6 isozyme
Assay type: in vitro ADME
Parameters: purchased BD Gentest (Woburn, Mass.)
run parameters: 10 μm compound, incubation time 30 min
endpoint label: Loss of parent compound with CYP2D6 isozyme (%)

Below, each entry is followed by its recorded Loss of parent compound with CYP2D6 isozyme (%) result.
response.value for CCCOC(=O)N(C)CCCN1c2ccccc2CCc2ccccc21 [RIC-5b] (field: Loss of parent compound with CYP2D6 isozyme (%)) = 19.21

Quick note, Loss of parent compound with CYP2D6 isozyme (%) for CCOP(=O)(OCC)N(C)CCCN1c2ccccc2CCc2ccccc21 [RIC-02] landed at 13.19

(a) CCCCCCCCOC(=O)N(C)CCCN1c2ccccc2CCc2ccccc21 [RIC-5d]
(b) COC(=O)N(C)CCCN1c2ccccc2CCc2ccccc21 [RIC-5a]
(c) CC(C)COC(=O)N(C)CCCN1c2ccccc2CCc2ccccc21 [RIC-5c]
Task: Rank entries according to their Loss of parent compound with CYP2D6 isozyme (%), from the largest number down. Form entry: ranked labels (order as requested).
Result: b, c, a

====

measurement notes: Stability testing of prodrugs in rat plasma (elevated esterase activity)
Type: in vitro ADME, Sprague-Dawley rat
run parameters: 10 μM, ca. 37° C., incubation time 120 min
endpoint label: Loss of parent compound in rat plasma (%)

Here are 2 molecules together with their reported answers.
// field: Loss of parent compound in rat plasma (%); key: CC(C)COC(=O)N(C)CCCN1c2ccccc2CCc2ccccc21 [RIC-5c] ; value = 33.40

Value of Loss of parent compound in rat plasma (%) reported for the molecule CCOP(=O)(OCC)N(C)CCCN1c2ccccc2CCc2ccccc21 [RIC-02] is 9.02

(a) CCCCCCCCOC(=O)N(C)CCCN1c2ccccc2CCc2ccccc21 [RIC-5d]
(b) CCCOC(=O)N(C)CCCN1c2ccccc2CCc2ccccc21 [RIC-5b]
(c) COC(=O)N(C)CCCN1c2ccccc2CCc2ccccc21 [RIC-5a]
Task: // sort entries: Loss of parent compound in rat plasma (%), high to low Form entry: ranked labels (order as requested).
Result: a, c, b
(a: 73.48%, c: 45.85%, b: 23.42%)
